System: HCT116
Assay: efficacy (fitted maximal change in viability relative to DMSO control); higher = less cytotoxic (negative = loss of viability)
Conditions: 48 h
Would you kindly list efficacy for each of these molecules?
One number for each entry, in %.

Illustrative cases are given below, each with its answer.
| molecule | unit-symbol | efficacy |
| --- | --- | --- |
| Cc1[nH]c(/C=C2\C(=O)Nc3ccccc32)c(C)c1CCC(=O)O [Orantinib] | % | -49.3 |
| O=C(NO)c1cnc(N2C[C@H]3C[C@@H]2CN3c2cc(C(F)(F)F)ccn2)nc1 | % | -86.6 |
| CNC(=O)c1cccc(-c2ccc3c(N4CCOC[C@@H]4C)nc(N4CCOC[C@@H]4C)nc3n2)c1 | % | -31.3 |

Hey, can you go through the list below and give me efficacy for every item?
1. Nc1cc(c(cc1S(=O)(N)=O)S(N)(=O)=O)C(/Cl)=C(/Cl)Cl
2. N=C(N)NN.N=C(N)NN.O=S(=O)(O)O [AMINOGUANIDINE HYDROCHLORIDE]
3. CCC1=C[C@@H]2CN(C1)Cc1c([nH]c3ccccc13)[C@@](C(=O)OC)(c1cc3c(cc1OC)N(C)[C@H]1[C@@](O)(C(=O)OC)[C@H](OC(C)=O)[C@]4(CC)C=CCN5CC[C@]31[C@@H]54)C2 [Vinorelbine (ditartrate)]

Outgoing:
1: -7.71; 2: -9.44; 3: -60.3

# batch size: 7; output efficacy per entry
1. CC(C)(c1ccc(OCC(O)CO)cc1)c1ccc(OCC(O)CCl)cc1 (stereo not drawn) [Ralaniten (EPI-001)]
2. c1cncc(CN2CCC(n3ncc4c(N5CCOCC5)nc(-c5ccc6[nH]ccc6c5)nc43)CC2)c1
3. NC1(C(=O)N[C@@H](CCO)c2ccc(Cl)cc2)CCN(c2ncnc3[nH]ccc23)CC1
4. NC(=O)c1cccc(-c2cc(Nc3ccc(OC(F)(F)F)cc3)ncn2)c1
5. C[C@@H]1O[C@@H](O[C@H]2C[C@@H](O)[C@]3(CO)[C@H]4[C@H](O)C[C@]5(C)[C@H](CC[C@]5(O)[C@@H]4CC[C@]3(O)C2)C/6=C/C(=O)OC6)[C@H](O)[C@H](O)[C@H]1O [Strophantine octahydrate]
6. COc1cc2nccc(Oc3ccc(NC(=O)Nc4cc(C)on4)c(Cl)c3)c2cc1OC
7. O=C(Oc1ccc([N+](=O)[O-])cc1)N1CCN(Cc2cccc(Oc3ccccc3)c2)CC1

Outgoing:
[-37, -78.7, -83.1, -97.5, -75.8, -80.3, -38.1]

----------
Please provide measured efficacy for the entries that follow.
System: HCT116
Assay: efficacy (fitted maximal change in viability relative to DMSO control); higher = less cytotoxic (negative = loss of viability)
Conditions: 48 h
Answers are plain numbers, in %.

For orientation, consider the following solved cases.
| compound | experimental-result |
| --- | --- |
| O=C(/C=C/c1cccnc1)NCCCCC1CCN(C(=O)c2ccccc2)CC1 | -94.1 |
| Cc1cc(C)c(C/N=C(\O)c2cc(-c3ccc(N4CCN(C)CC4)nc3)cc3c2c(C)cn3C(C)C)c(O)n1 | -103 |
| COc1cc(NCc2ccc3nc(N)nc(N)c3c2C)cc(OC)c1OC [Trimetrexate] | -77.8 |
| COc1ccc2cc3[n+](cc2c1OC)CCc1cc2c(cc1-3)OCO2 | -96.9 |
| C=CC(=O)N1CCC(CNc2ncnc(N)c2-c2ccc(Oc3ccccc3)cc2)CC1 | -43.5 |
| N#Cc1ccc(Cn2cncc2CN2CCN(c3cccc(Cl)c3)C(=O)C2)cc1 | -46 |
| CC(=O)O/N=C1/C(=C2\C(=O)Nc3cc(Br)ccc32)Nc2ccccc21 | -92.3 |

Then this compound:
Incoming: Under HCT116: efficacy value of Oc1ccc(C2CCN(c3ccnc4ccccc34)CC2)cc1O ?
Outgoing: -49

----------
System: HCT116
Assay: AC50 cell viability (CellTiter-Glo); higher = less potent
Conditions: 48 h
Task for the reader: assign each of the following compounds its reported AC50 cell viability.
One number for each entry, in µM.

Worked cases, AC50 cell viability given:
| compound | experimental-result |
| --- | --- |
| CC(C)c1cc(C(=O)N2Cc3ccc(CN4CCN(C)CC4)cc3C2)c(O)cc1O [Onalespib] | 0.118 |
| CC(C)CNc1ccnc(NCc2csc(-c3ccccc3)n2)n1 [KHS-101] | 11.8 |

Would you mind giving AC50 cell viability for every compound in the list below?
1. COc1ccc(-c2ccc3ncc4c(c3c2)n(-c2ccc(N3CCNCC3)c(C(F)(F)F)c2)c(=O)n4C)cn1 [NVP-BGT226]
2. CN1C/C=C/CCOc2cccc(c2)-c2ccnc(n2)Nc2cccc(c2)C1 [SB-1317]
3. CNCc1ccc(C)c(NC(=O)c2ccc(Nc3nc(-c4ccccc4)c4ccccc4n3)cc2)c1

Outgoing:
1: 0.295; 2: 0.059; 3: 18.6

Would you be so kind as to report AC50 cell viability for each listed record?
1. N[S+]([O-])(=O)C1=CC=C(NC/2=C/C(=O)C3=CC=CC=C3C2=O)C=C1
2. O=C1Nc2cc(Br)ccc2/C1=C1/Nc2ccccc2/C1=N\O [BIO]

Outgoing:
[10.5, 10.5]

Could you report AC50 cell viability for every entry in the following list?
1. c1ccc2c(-c3cnn4cc(-c5ccc(N6CCNCC6)cc5)cnc34)ccnc2c1
2. CC1=C(C)C\2=C(S1)[N]3C(=NN=C3[C@H](CC(N)=O)\N=C2C4=CC=C(Cl)C=C4)C [CPI-203]
3. Cc1c(NC(=O)OCC2COCCN2)cn2ncnc(Nc3ccc4c(cnn4Cc4cccc(F)c4)c3)c12 (centres undefined)
4. Cc1csc(-c2nnc(Nc3ccc(Oc4ncccc4-c4ccnc(N)n4)cc3)c3ccccc23)c1 [AMG-900]
5. O=C(Nc1nc2ccccc2n1CCN1CCOCC1)c1cccc([N+](=O)[O-])c1 [IRAK-1-4 Inhibitor I]
6. CC/1=C/C[C@]23O[C@@]2(C)CC[C@@H]4[C@H](OC(=O)C4=C)[C@@H]13 [Arglabin]
7. CC(C)c1ccc2c(c1)c(SC(C)(C)C)c(CC(C)(C)C(=O)[O-])n2Cc1ccc(Cl)cc1 [MK-886]

Outgoing:
[2.35, 0.372, 26.3, 16.6, 14.8, 14.8, 20.9]

I have 4 compounds here; please give me AC50 cell viability for each one.
1. CCN(CC)CCCCNc1nc2cc(Cl)c(Cl)cc2nc1-c1ccc(-c2cccs2)s1
2. CN(C(=O)CNC(=O)/C=C/c1cccc(Cl)c1)C1CC[S+](=O)([O-])CC1 (centres undefined) [ML264]
3. C[C@H](NC(=O)CCC(F)(F)F)C(=O)N[C@@H]1C(=O)N(CCO)c2ncccc2-c2ccccc21 [Crenigacestat]
4. COc1cc([C@@H]2c3cc4c(cc3[C@@H](O[C@@H]3O[C@@H]5CO[C@@H](c6cccs6)O[C@H]5[C@H](O)[C@H]3O)[C@H]3COC(=O)[C@H]23)OCO4)cc(OC)c1O [Teniposide]

Outgoing:
1: 23.5; 2: 0.742; 3: 0.332; 4: 4.17

I'm hoping you can list AC50 cell viability for every compound here, please.
1. CC(C)c1noc(N2CCC(COc3ccc(-c4ccc([S+](C)(=O)[O-])cc4)nc3)CC2)n1
2. C[C@@H](O)[C@@H](C)Oc1nc(Nc2ccc([S+](=N)([O-])C3CC3)cc2)ncc1C(F)(F)F (some centres undefined) [Roniciclib]
3. C[C@]1(O)CC(C1)C2=NC(=C3[N]2C=CN=C3N)C4=CC5=C(C=C4)C=CC(=N5)C6=CC=CC=C6 (centres undefined) [Linsitinib]
4. Cc1cnc(Nc2ccc(OCCN3CCCC3)cc2)nc1Nc1cccc([S+](=O)([O-])NC(C)(C)C)c1
5. O=C(Nc1cccnc1)N1CCC(Cc2cccc(Oc3ccc(C(F)(F)F)cn3)c2)CC1 [PF-3845]
6. Cc1cnc(NC(=O)Nc2cc(Br)c(C)cc2OC[C@@H]2CNCCO2)cn1 [Rabusertib]
7. Cc1ccc(C(=O)Nc2cccc(C(F)(F)F)c2)cc1-c1ccc2nc(NCCN3CCOCC3)ncc2c1 [AMG-47a]

Outgoing:
1: 3.72; 2: 18.6; 3: 23.5; 4: 2.63; 5: 13.2; 6: 16.6; 7: 2.35

Could I get AC50 cell viability for every one of these entries?
1. COc1nnc2ccc(N3CCC(c4ccc(OCCN5CCN(C)C(=O)[C@H]5C)cc4)CC3)nn12 [AZD-5153 6-Hydroxy-2-naphthoic acid]
2. COC(=O)[C@]12CCC(C)(C)C[C@H]1[C@H]3C(=O)\C=C\4[C@@](C)(CC[C@H]5C(C)(C)C(=O)\C(=C/[C@]45C)C#N)[C@]3(C)CC2 [Bardoxolone methyl]
3. Cn1cnc(-c2cc3nccc(Oc4ccc(NC(=S)NC(=O)Cc5ccccc5)cc4F)c3s2)c1 [MGCD-265]
4. CO[C@@H]1C(N(C)C(=O)c2ccccc2)C[C@H]2O[C@]1(C)n1c3ccccc3c3c4c(c5c6ccccc6n2c5c31)C(=O)NC4=O (some centres undefined) [Stauprimide]

Outgoing:
1. 0.0833
2. 7.42
3. 16.6
4. 1.66
